system.under.test: Retinal dehydrogenase 2 (Homo sapiens)
method.description: qHTS for Inhibitors of the Aldehyde Dehydrogenase Family (ALDH1A2) Confirmation screens (AID 2061314); further: nearly all actives have a fitted effect of over 65% in size
condition: ALDH1A2 enzyme inhibition qHTS confirmation; series mostly up to 45.9 µM
Inconclusive results are not listed. Calls of active or inactive are those of the source. The call rests on the fitted dose curve; in most records, active means well fitted inhibition curve with a large enough effect; inconclusive means small, poorly fitted or top-dose-only effect; inactive means no such curve, though single readings can be large or run the other way.
In this exercise, the only acceptable responses are active, inactive

// param item: COc1ccc(NC(=O)c2ccco2)cc1NC(=O)c1ccccc1[N+](=O)[O-] ; yields the recorded call inactive

Likewise for CCC(=O)Nc1ccc(S(=O)(=O)NCc2ccc3c(c2)CCN3C(=O)c2ccc(C)cc2)cc1 ? inactive

Likewise for CC(=O)Nc1ccc(-c2csc(N3CCC(C(N)=O)CC3)n2)cc1 ? active

Likewise for CCOc1ccccc1NC(=O)CN(C)S(=O)(=O)c1ccc(C(=O)N2CCOCC2)s1 ? inactive

Likewise for CCc1noc(-c2nc(Cc3cccc(F)c3)no2)n1 ? inactive

Likewise for CCOc1ccc(NC(=O)NCC2CCCN2c2ccc(OC)cc2)cc1 (stereo unspecified) ? active

Likewise for COC(=O)[C@H](Cc1ccc(OC)cc1)NC(=O)[C@@H]1CNCCN1S(=O)(=O)c1ccccc1 ? inactive

Likewise for CC(=O)Nc1sc2c(c1-c1nc3ccccc3s1)CCN(C1COC1)C2 ? active

Likewise for Cc1c(C(=O)OCc2ccco2)[nH]c2c1C(=O)CC(c1ccco1)C2 (stereo unspecified) ? active

Likewise for COC(=O)c1cc(C)nc2c1c(=O)nc(SCc1ccccc1Cl)n2C1CC1 ? inactive

Likewise for Cc1noc(Nc2sc3c(c2-c2nc4ccccc4s2)CCNC3)n1 ? active

Likewise for O=C1Nc2ccc(C(=O)c3ccco3)cc2/C1=C/c1cc(Cl)c(O)c(Cl)c1 ? active

Likewise for Cc1cccc(NC(=O)CSc2nc3ccccc3nc2N2CCOCC2)c1C ? inactive

Likewise for COc1ccc(N2CCN(C(=S)Nc3cc(C)ccn3)CC2)cc1 ? active

Likewise for COc1cccc(-n2c(SCc3ccccc3C)nc3c([nH]c4ccccc43)c2=O)c1 ? inactive

Likewise for Cc1cc(C)nc(NC(=S)N2CCN(c3ccc4cn(C)nc4c3)CC2)c1 ? active

Likewise for N#Cc1ccc(-c2ccc(CNc3ccc(N4CCOCC4)cc3)cn2)cc1 ? inactive

Likewise for Cc1cc(-c2nnc3n2CCCCC3)c(C)n1-c1ccc([N+](=O)[O-])cc1 ? active

Likewise for Cc1ccc(-c2cc(C(=O)Nc3ccc(-c4noc(=O)[nH]4)cc3)c3ccccc3n2)cc1C ? inactive

Likewise for CC(=O)c1c(C)n(-c2ccc(Cl)cc2)c2ccc(OC(=O)COc3ccccc3)cc12 ? inactive

Likewise for NC(=O)C1CCN(c2ncc(-c3ccc4c(c3)OC(F)(F)O4)s2)CC1 ? inactive

Likewise for COc1ccc(Nc2cc(O)c3ncccc3c2)cc1 ? inactive

Likewise for COCCNC(=O)CNC(=O)c1ccc(-c2cccc(C(F)(F)F)c2)cc1 ? inactive

Likewise for CCOc1ccc(S(=O)(=O)N2CCN(c3ccccc3)CC2)cc1C(N)=O ? inactive

Likewise for CC(=O)c1c(C)n(-c2cccc(Cl)c2)c2ccc(OC(=O)c3ccccc3)cc12 ? inactive

Likewise for O=C(O)CN1C(=O)/C(=C/c2ccc(-c3cccc(Cl)c3)o2)SC1=S ? active

Likewise for COc1ccc(C2=NS(=O)(=O)N(C)C(C(=O)Nc3ccc(OC(F)(F)F)cc3)=C2)cc1 ? inactive

Likewise for O=C1c2ccccc2NC(c2ccc(-c3ccc(C(F)(F)F)cc3)o2)N1O (stereo unspecified) ? active

Likewise for COc1ccc(C2Nc3ccccc3C(=O)N2Cc2ccc(CNC(=O)CO)cc2)cc1COc1ccc(NC(C)=O)cc1 (stereo unspecified) ? active

Likewise for COc1ccc(N2CCN(C(=O)c3cc(NS(=O)(=O)c4ccc(F)cc4)ccn3)CC2)cc1 ? inactive

Likewise for Cc1ccc(S(=O)(=O)NC[C@H]2O[C@@H](CC(=O)NCCN3CCOCC3)[C@H](O)[C@@H]2O)cc1 ? inactive

Likewise for O=C(c1ccco1)N1CCN(c2nc(-c3ccc(Br)cc3)cs2)CC1 ? inactive

Likewise for O=c1c2nc(OCc3ccc(F)cc3)ccc2ncn1C1CC1 ? inactive

Likewise for O=C(NCC#CCSc1nnc(-c2cccc3ccccc23)o1)c1cccs1 ? active

Likewise for COc1ccc(OC)c(CNC(=O)C2CCCCN2S(=O)(=O)c2ccc(F)cc2)c1 (stereo unspecified) ? inactive

Likewise for CC(=O)c1cccc(NC(=O)c2ccc(Cl)c(S(=O)(=O)N3CCOCC3)c2)c1 ? inactive

Likewise for N#Cc1c(-c2ccc(F)c(Br)c2)no[n+]1[O-] ? active

Likewise for CCOC(=O)Cn1c(=O)oc2cc(S(=O)(=O)N3CCN(c4ccc(C(C)=O)cc4)CC3)ccc21 ? inactive

Likewise for COc1ccc(C2=Nn3c(nnc3-c3ccc(OC)cc3OC)SC2)cc1 ? inactive

Likewise for O=S(=O)(NCCn1cc(-c2cncnc2)nn1)c1ccc(Cl)cc1 ? inactive

Likewise for OCc1ccc(-c2ccc3ncnc(NCc4nccs4)c3c2)o1 ? active

* * *

method.description: BET inhibitor-based combinations targeting novel dependencies in MECOM-rearranged (r) AML: AML-194 cell line (AID 2202237; further: nearly all actives have a fitted effect of over 40% in size)
condition: AML-194 (MECOM-r AML) viability, CellTiter-Glo, 48 h; series mostly up to 46 µM
Records with an inconclusive call do not appear. Active and inactive are the calls of the source. Calls come from the whole dose curve; as a rule, active = well fitted inhibition curve with a large enough effect; inconclusive = small, poorly fitted or top-dose-only effect; inactive = flat fitted curve, though single readings scatter.
In this exercise, the only acceptable responses are yes (1) for active, no (0) for inactive

// param item: CO[C@H]1C(=O)[C@]2(C)[C@@H](OC)C[C@H]3OC[C@@]3(OC(C)=O)[C@H]2[C@H](OC(=O)c2ccccc2)[C@]2(O)C[C@H](OC(=O)[C@H](O)[C@@H](NC(=O)OC(C)(C)C)c3ccccc3)C(C)=C1C2(C)C ; yields the recorded call yes (1)

Likewise for CC[C@H](NC(=O)[C@H](C)NC)C(=O)N1C[C@@H](O)C[C@H]1Cc1c(-c2[nH]c3cc(F)ccc3c2C[C@@H]2C[C@H](O)CN2C(=O)[C@H](CC)NC(=O)[C@H](C)NC)[nH]c2cc(F)ccc12 ? yes (1)

Likewise for CCc1cc2c(c(OCC(F)(F)F)c(C(=O)NC3CCN(C(=O)CO)CC3)n2C)c(=O)n1CC(=O)c1ccccc1 ? no (0)

* * *

method.description: BET inhibitor-based combinations targeting novel dependencies in MECOM-rearranged (r) AML: OCI-AML3 cell line (AID 2202232); further: nearly all actives have a fitted effect of over 35% in size
condition: CellTiter-Glo luminescence, 48 h; OCI-AML3 viability; series mostly up to 46 µM
Procedure: Ecotropic viral insertion site 1 (EVI1) is located on chromosome 3q26.2 as part of the MECOM (MDS and EVI1 complex) locus. […] A collection of 2480 mechanistically annotated dugs (MIPE v5.0) was used to screen four 3q26.2 rearranged AML cell lines and three non-3q26.2 rearranged AML cell lines. […] Cell viability was determined by luminescence based, Cell Titer Glo assay (Promega). […] Luminescence readings were taken using a Viewlux (PerkinElmer) with a 2 s exposure time per plate. […]
Inconclusive results are not listed. Activity calls are given as the source filed them. Calls come from the whole dose curve; as a rule, active = well fitted inhibition curve with a large enough effect; inconclusive = small, poorly fitted or top-dose-only effect; inactive = no such curve, though single readings can be large or run the other way.
In this exercise, the only acceptable responses are TRUE for active, FALSE for inactive

// param item: CCCS(=O)(=O)c1nc(NC2CC2)cc(-c2ccc3c(ccn3C3CC(C)(C)NC(C)(C)C3)c2)n1 ; yields the recorded call TRUE

Likewise for O=C(O)c1cccnc1 ? FALSE

Likewise for Cc1c(Cl)cccc1S(=O)(=O)Nc1nc(CCN2CCOCC2=O)cs1 ? TRUE

Likewise for COc1ccc(CNC(=O)c2cc(-c3cncc(Cl)c3)cnc2-c2ccccn2)nc1OC ? FALSE

Likewise for COc1cccc(-c2c(C)n(Cc3c(F)cccc3C(F)(F)F)c(=O)n(C[C@H](NCCCC(=O)O)c3ccccc3)c2=O)c1F ? TRUE

Likewise for CN(C)CCCOc1ccc(-c2ccc3ncc4c(c3c2)n(C2CCOCC2)c(=O)n4C)cn1 ? TRUE

Likewise for CCN1CCN(Cc2ccc(NC(=O)c3ccc(C)c(/C=C/c4cnc5[nH]ccc5c4OC)c3)cc2C(F)(F)F)CC1 ? TRUE

Likewise for CN1C(C(=O)Nc2ccccn2)=C(O)c2sccc2S1(=O)=O ? FALSE

Likewise for C[C@H]1[C@H](C)CC[C@]2(C(=O)O)CC[C@]3(C)C(=CC[C@@H]4[C@@]5(C)C[C@@H](O)[C@H](O)[C@@](C)(CO)[C@@H]5CC[C@]43C)[C@H]12 ? FALSE

Likewise for CN1C(=O)[C@@H](NC(=O)c2n[nH]c(Cc3ccccc3)n2)COc2ccccc21 ? FALSE

Likewise for CC[C@H](NC(=O)[C@H](C)NC)C(=O)N1C[C@@H](O)C[C@H]1Cc1c(-c2[nH]c3cc(F)ccc3c2C[C@@H]2C[C@H](O)CN2C(=O)[C@H](CC)NC(=O)[C@H](C)NC)[nH]c2cc(F)ccc12 ? FALSE

Likewise for O=C(Nc1cc(Oc2cc(F)c(NC(=O)C3(C(=O)Nc4ccc(F)cc4)CC3)cc2F)ccn1)C1CC1 ? TRUE

Likewise for CC(C)C[C@H](NC(=O)[C@H](Cc1ccccc1)NC(=O)OCc1ccccc1)C(=O)C=O ? FALSE

Likewise for O=C1Nc2nc(-c3c(O)cccc3OCC3CC3)cc([C@@H]3CCCNC3)c2CO1 ? TRUE

Likewise for Cc1c(NC(=O)c2cc(C(N)=O)nc3cc(F)ccc23)c(C(F)(F)F)nn1Cc1ccc(C(C)(C)C)cc1 ? TRUE

Likewise for CC(=O)NCCCS(=O)(=O)O ? FALSE

Likewise for CC(C)n1c(=O)cc(N[C@@H](C)c2ccccc2)[nH]c1=O ? FALSE

Likewise for NS(=O)(=O)c1ccc(NC(=S)N2CCN(C/C=C/c3ccccc3)CC2)cc1 ? TRUE
